Data provenance: patent US11857560B2

# Test system: Influenza A H3N2
# test details: Antiviral activity, Influenza A H3N2
# Type: cell-based
# condition context: Influenza A virus, H3N2, read-out: Influenza A H3N2 EC50
recorded endpoint: EC50

Q: Provide one value: measured EC50 of Nc1ccn([C@@H]2O[C@H](CO)C(O)[C@@H]2F)c(=S)n1 (stereo partly shown)
Result: > 100 µM

###

# test details: Cytotoxicity in HepG2 cells (HBV assay)
# Type: cell-based
# condition context: human, HepG2.2.15 cells; beside HBV
recorded endpoint: CC50 at 6 days

Q: Provide one value: measured CC50 at 6 days of CC(C)OC(=O)[C@H](C)NP(=O)(OC[C@H]1O[C@@H](n2ccc(=O)[nH]c2=S)[C@](C)(O)C1O)Oc1ccccc1 (stereo partly shown)
Result: > 100 µM

###

Readings of CC50 for the listed compounds
# test details: Cytotoxicity in GT1b replicon cells
# Assay type: cell-based

[[record]]
compound = "CC(C)OC(=O)[C@H](C)NP(=O)(OC[C@H]1O[C@@H](n2ccc(=O)[nH]c2=S)[C@](C)(O)C1O)Oc1ccccc1 (some centres unmarked) [ENUC-01911-2]"
reported_measurement = "> 10 µM"


Q: Provide one value: measured CC50 of CC(C)OC(=O)[C@H](C)N[P@](=O)(OC[C@H]1O[C@@H](n2ccc(=O)[nH]c2=O)[C@](C)(F)C1O)Oc1ccccc1 (some centres unmarked) [GS-7977, reference compound]
Result: > 2 µM

###

# test details: Cytotoxicity panel, BxPC3
# condition context: human, BxPC3 cells
Readings of CC50 for the listed molecules

[[record]]
molecule = "CC(C)OC(=O)[C@H](C)NP(=O)(OC[C@H]1O[C@@H](n2ccc(=S)[nH]c2=O)[C@](C)(F)C1O)Oc1ccccc1 (stereo partly shown) [ENUC-01943-1]"
recorded_endpoint = "CC50"
reported_measurement = "> 300 µM"

[[record]]
molecule = "C[C@@]1(O)C(O)[C@@H](CO)O[C@H]1n1ccc(=O)[nH]c1=S (stereo partly shown) [ENUC-01850-1]"
recorded_endpoint = "CC50"
reported_measurement = "> 100 µM"

[[record]]
molecule = "CC(C)OC(=O)[C@H](C)NP(=O)(OC[C@H]1O[C@@H](n2ccc(=O)[nH]c2=S)[C@](C)(O)C1O)Oc1ccccc1 (stereo partly shown) [ENUC-01911-1]"
recorded_endpoint = "CC50"
reported_measurement = "> 300 µM"


Next:
Q: Provide one value: measured CC50 of CC(C)OC(=O)[C@H](C)NP(=O)(OC[C@H]1O[C@@H](n2ccc(=O)[nH]c2=O)[C@](C)(O)C1O)Oc1ccccc1 (stereo partly shown) [ENUC-01982-1]
Result: 157 µM

###

Readings of CC50 at 72 h for the listed molecules
# test details: Cellular toxicity in parallel with HCV replicon assay (XTT)
# condition context: human

Worked cases, CC50 at 72 h given:
[[record]]
molecule = "C[C@@]1(O)C(O)[C@@H](COP(=O)(O)O)O[C@H]1n1ccc(=O)[nH]c1=S (stereo partly drawn)"
reported_measurement = "> 100 µM"

[[record]]
molecule = "O=c1[nH]c(=S)ccn1[C@@H]1O[C@H](CO)C(O)[C@@H]1O (stereo partly drawn)"
reported_measurement = "45.7 µM"


Q: Provide one value: measured CC50 at 72 h of CC(C)OC(=O)[C@H](C)NP(=O)(OC[C@H]1O[C@@H](n2ccc(=O)[nH]c2=S)[C@@H](O)C1O)Oc1ccccc1 (stereo partly drawn)
Result: > 100 µM

Q: Provide one value: measured CC50 at 72 h of CC(C)OC(=O)[C@H](C)NP(=O)(OC[C@@]1(N=[N+]=[N-])O[C@@H](n2ccc(=S)[nH]c2=O)[C@@H](O)C1O)Oc1ccccc1 (stereo partly drawn)
Result: > 100 µM

Q: Provide one value: measured CC50 at 72 h of CC(C)OC(=O)[C@H](C)NP(=O)(OC[C@H]1O[C@@H](n2ccc(=S)[nH]c2=O)[C@@H](O)C1O)Oc1ccccc1 (stereo partly drawn)
Result: > 100 µM

Q: Provide one value: measured CC50 at 72 h of C[C@H](NP(=O)(O)OC[C@H]1O[C@@H](n2ccc(=O)[nH]c2=S)[C@](C)(O)C1O)C(=O)O (stereo partly drawn)
Result: > 100 µM

###

# test details: in vitro
recorded endpoint: CC50 (µM)
Please respond with the number in µM and leave the unit unwritten.

Q: Provide one value: measured CC50 of Nc1ccn([C@@H]2O[C@H](CO)C(O)[C@@H]2F)c(=S)n1 (some centres unmarked)
Result: 87

###

# test details: Cytotoxicity panel, IEC-6
# Format: cell-based
# condition context: rat, IEC-6 cells
recorded endpoint: CC50

Q: Provide one value: measured CC50 of CC(C)OC(=O)[C@H](C)NP(=O)(OC[C@H]1O[C@@H](n2ccc(=S)[nH]c2=O)[C@](C)(F)C1O)Oc1ccccc1 (stereo partly shown)
Result: > 400 µM

###

# test details: Cytotoxicity panel, HepG2
# condition context: human, HepG2 cells
Readings of CC50 for the listed compounds

Worked cases, CC50 given:
[[record]]
compound = "CC(C)OC(=O)[C@H](C)NP(=O)(OC[C@H]1O[C@@H](n2ccc(=S)[nH]c2=O)[C@](C)(F)C1O)Oc1ccccc1 (some centres unmarked)"
recorded_endpoint = "CC50"
reported_measurement = "199 µM"

[[record]]
compound = "CC(C)OC(=O)[C@H](C)N[P@@](=O)(OC[C@H]1O[C@@H](n2ccc(=O)[nH]c2=S)[C@](C)(O)C1O)Oc1ccccc1 (some centres unmarked)"
recorded_endpoint = "CC50"
reported_measurement = "> 400 µM"

[[record]]
compound = "CC(C)OC(=O)[C@H](C)NP(=O)(OC[C@H]1O[C@@H](n2ccc(=S)[nH]c2=O)[C@](C)(O)C1O)Oc1ccccc1 (some centres unmarked)"
recorded_endpoint = "CC50"
reported_measurement = "> 400 µM"


Q: Provide one value: measured CC50 of CC(C)OC(=O)[C@H](C)NP(=O)(OC[C@H]1O[C@@H](n2ccc(=O)[nH]c2=S)[C@@H](C)C1O)Oc1ccccc1 (some centres unmarked)
Result: > 400 µM

Q: Provide one value: measured CC50 of C[C@@]1(O)C(O)[C@@H](COP(=O)(O)O)O[C@H]1n1ccc(=O)[nH]c1=S (some centres unmarked)
Result: > 400 µM

###

Readings of CC50 for the listed compounds
# test details: Cytotoxicity panel, Huh-7
# condition context: human, Huh-7 cells, Cytotoxicity (CC50 uM) Huh-7, Huh-7

Worked cases, CC50 given:
[[record]]
compound = "CC(C)OC(=O)[C@H](C)NP(=O)(OC[C@H]1O[C@@H](n2ccc(=S)[nH]c2=O)[C@@H](O)C1O)Oc1ccccc1 (stereo partly drawn) [ENUC-02071-1]"
reported_measurement = "381 µM"

[[record]]
compound = "C[C@@]1(O)C(O)[C@@H](CO)O[C@H]1n1ccc(=O)[nH]c1=S (stereo partly drawn) [ENUC-01850-1]"
reported_measurement = "> 100 µM"

[[record]]
compound = "CC(C)OC(=O)[C@H](C)N[P@@](=O)(OC[C@H]1O[C@@H](n2ccc(=O)[nH]c2=O)[C@](C)(F)C1O)Oc1ccccc1 (stereo partly drawn) [ENUC-02026-1]"
reported_measurement = "> 400 µM"

[[record]]
compound = "CC(C)OC(=O)[C@H](C)NP(=O)(OC[C@H]1O[C@@H](n2ccc(=O)[nH]c2=S)[C@](C)(O)C1O)Oc1ccccc1 (stereo partly drawn) [ENUC-01911-1]"
reported_measurement = "> 400 µM"

[[record]]
compound = "CC(C)OC(=O)[C@H](C)NP(=O)(OC[C@H]1O[C@@H](n2ccc(=O)[nH]c2=O)[C@](C)(O)C1O)Oc1ccccc1 (stereo partly drawn) [ENUC-01982-1]"
reported_measurement = "65 µM"


Next:
Q: Provide one value: measured CC50 of CC(C)OC(=O)[C@H](C)N[P@@](=O)(OC[C@H]1O[C@@H](n2ccc(=O)[nH]c2=S)[C@](C)(O)C1O)Oc1ccccc1 (stereo partly drawn) [ENUC-02024-1]
Result: > 400 µM

###

Readings of CC50 for the listed molecules
# test details: Toxicity in Vero cells (Dengue assay)
# condition context: African green monkey

[[record]]
molecule = "CC(C)OC(=O)[C@H](C)N[P@@](=O)(OC[C@H]1O[C@@H](n2ccc(=O)[nH]c2=S)[C@](C)(O)C1O)Oc1ccccc1 (stereo partly drawn) [ENUC-02024]"
reported_measurement = "> 100 µM"

[[record]]
molecule = "CC(C)OC(=O)[C@H](C)N[P@](=O)(OC[C@H]1O[C@@H](n2ccc(=O)[nH]c2=S)[C@](C)(O)C1O)Oc1ccccc1 (stereo partly drawn) [ENUC-02023]"
reported_measurement = "> 100 µM"


Next:
Q: Provide one value: measured CC50 of C[C@@]1(O)C(O)[C@@H](CO)O[C@H]1n1ccc(=O)[nH]c1=S (stereo partly drawn) [ENUC-01850]
Result: > 100 µM
